Consider the following compounds; for each one, report its Ki.
assayed.system: AD brain tissue homogenates (Homo sapiens)
Sequence (P10636 623-695 limits assumed): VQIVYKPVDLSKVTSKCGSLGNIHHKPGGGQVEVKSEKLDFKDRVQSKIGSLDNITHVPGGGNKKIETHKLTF
assay.protocol: Competitive binding test using [3H]THK-5117 as radio ligand with AD brain tissue homogenates
particulars: 2 nM [3H]THK-5117, 100 μg homogenate, 3 hours room temperature; read-out: Ki Entorhinal cortex 601 pmol/g tissue
Number first, unit second: that is the form wanted.

CN(C)c1ccc(-c2ccc3cc(OC[C@@H](O)CF)ccc3n2)cc1 [THK-5105R, reference compound]    27.4 nM

Now for a further compound.
For reference, reported Ki for CN(C)c1ccc(-c2ccc3cc(OC[C@H](O)CF)ccc3n2)cc1 [THK-5105S] stands at 4.6 nM

The reported numbers originate from patent US20160244411A1.
